Target or system Voltage-gated inwardly rectifying potassium channel KCNH2 (Homo sapiens): recorded IC50 listed per item.

- compoundString: "CN1CCN(c2ncnc3c2nc(-c2ccccc2Cl)n3-c2ccc(Cl)cc2)CC1"
  valueModifier: "="
  IC50, nM: 630
- compoundString: "Clc1ccc(-n2c(-c3ccc(Cl)cc3Cl)nc3c(N4CCCCC4)ncnc32)cc1"
  valueModifier: ">"
  IC50, nM: 3000
- compoundString: "CN1CCN(c2ncnc3c2nc(-c2ccc(Cl)cc2Cl)n3-c2ccc(Cl)cc2)CC1"
  valueModifier: "="
  IC50, nM: 350
- compoundString: "Clc1ccc(-n2c(-c3ccc(Cl)cc3Cl)nc3c(NN4CCCCC4)ncnc32)cc1"
  valueModifier: "="
  IC50, nM: 2700
- compoundString: "CCNC1(C(N)=O)CCN(c2ncnc3c2nc(-c2ccccc2Cl)n3-c2ccc(Cl)cc2)CC1"
  valueModifier: ">"
  IC50, nM: 3000

====

Overview of recorded pKi for various compounds
molecular target: Cannabinoid receptor 1 (Homo sapiens); experiment: Antagonist activity against human CB1 receptor expressed in CHO-K1 cells by [35S]GTPgamma binding assay; assay type: functional, cell-based
Sequence (P21554 whole entry): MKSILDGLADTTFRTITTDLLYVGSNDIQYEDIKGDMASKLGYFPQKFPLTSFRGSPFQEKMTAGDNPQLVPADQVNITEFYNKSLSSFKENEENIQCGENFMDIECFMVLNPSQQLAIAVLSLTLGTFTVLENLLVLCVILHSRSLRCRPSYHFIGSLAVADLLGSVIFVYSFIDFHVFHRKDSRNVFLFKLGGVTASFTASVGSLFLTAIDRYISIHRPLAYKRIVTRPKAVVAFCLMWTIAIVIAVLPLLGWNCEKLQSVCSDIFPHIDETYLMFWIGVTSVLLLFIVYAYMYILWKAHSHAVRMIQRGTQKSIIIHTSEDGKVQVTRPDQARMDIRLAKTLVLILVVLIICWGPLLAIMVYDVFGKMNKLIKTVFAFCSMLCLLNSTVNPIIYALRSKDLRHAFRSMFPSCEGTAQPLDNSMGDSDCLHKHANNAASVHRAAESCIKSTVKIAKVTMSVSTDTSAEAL
pKi: −log10 of the molar value.

- compoundString: "Clc1ccc(-n2c(-c3ccc(Cl)cc3Cl)nc3c(NN4CCCCC4)ncnc32)cc1"
  pKi: 8.77
- compoundString: "CN1CCN(c2ncnc3c2nc(-c2ccc(Cl)cc2Cl)n3-c2ccc(Cl)cc2)CC1"
  pKi: 8.82
- compoundString: "Clc1ccc(-n2c(-c3ccccc3Cl)nc3c(N4CCCCC4)ncnc32)cc1"
  pKi: 8.96
- compoundString: "Clc1ccc(-n2c(-c3ccc(Cl)cc3Cl)nc3c(NC4CCCCC4)ncnc32)cc1"
  pKi: 8.82
- compoundString: "Clc1ccc(-n2c(-c3ccc(Cl)cc3Cl)nc3c(N4CCCCC4)ncnc32)cc1"
  pKi: 8.77

====

assay: Metabolic stability in human liver microsomes assessed as intrinsic clearance; assay type: ADME, Microsome
Class true (1): CLint scaled at least 3000 mL/min/kg. Class false (0): CLint scaled below 3000 mL/min/kg.

- compoundString: "Clc1ccc(-n2c(-c3ccccc3Cl)nc3c(N4CCCCC4)ncnc32)cc1"
  categoryLabel: "true (1)"
- compoundString: "Clc1ccc(-n2c(-c3ccc(Cl)cc3Cl)nc3c(NC4CCCCC4)ncnc32)cc1"
  categoryLabel: "true (1)"
- compoundString: "Clc1ccc(-n2c(-c3ccc(Cl)cc3Cl)nc3c(NN4CCCCC4)ncnc32)cc1"
  categoryLabel: "false (0)"
- compoundString: "CN1CCN(c2ncnc3c2nc(-c2ccc(Cl)cc2Cl)n3-c2ccc(Cl)cc2)CC1"
  categoryLabel: "false (0)"
- compoundString: "CCNC1(C(N)=O)CCN(c2ncnc3c2nc(-c2ccccc2Cl)n3-c2ccc(Cl)cc2)CC1"
  categoryLabel: "false (0)"
- compoundString: "Clc1ccc(-n2c(-c3ccc(Cl)cc3Cl)nc3c(N4CCCCC4)ncnc32)cc1"
  categoryLabel: "true (1)"
- compoundString: "CN1CCN(c2ncnc3c2nc(-c2ccccc2Cl)n3-c2ccc(Cl)cc2)CC1"
  categoryLabel: "false (0)"

====

target: Cannabinoid receptor 1 (Rattus norvegicus); assay: Displacement of [3H]SR141716A from CB1 receptor in rat brain; assay type: tissue-based
Sequence (P20272 whole entry): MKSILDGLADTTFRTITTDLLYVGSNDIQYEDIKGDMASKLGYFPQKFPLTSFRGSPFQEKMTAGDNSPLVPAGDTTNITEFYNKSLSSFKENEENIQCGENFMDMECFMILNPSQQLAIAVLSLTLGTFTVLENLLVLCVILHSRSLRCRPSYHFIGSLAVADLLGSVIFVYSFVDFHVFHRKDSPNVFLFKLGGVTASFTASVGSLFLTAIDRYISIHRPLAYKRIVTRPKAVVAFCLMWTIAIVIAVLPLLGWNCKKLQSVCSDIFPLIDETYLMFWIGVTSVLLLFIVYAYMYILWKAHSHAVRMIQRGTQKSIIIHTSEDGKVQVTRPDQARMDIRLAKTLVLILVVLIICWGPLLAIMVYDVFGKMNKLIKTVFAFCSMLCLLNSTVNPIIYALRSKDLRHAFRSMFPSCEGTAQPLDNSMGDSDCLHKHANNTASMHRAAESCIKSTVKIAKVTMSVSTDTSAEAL
Readings of Ki for the listed molecules

- molecule: "CCNC1(C(N)=O)CCN(c2ncnc3c2nc(-c2ccccc2Cl)n3-c2ccc(Cl)cc2)CC1 [OTENABANT]"
  Ki, nM: 2.8
- molecule: "Clc1ccc(-n2c(-c3ccc(Cl)cc3Cl)nc3c(N4CCCCC4)ncnc32)cc1"
  Ki, nM: 4.2
- molecule: "CN1CCN(c2ncnc3c2nc(-c2ccc(Cl)cc2Cl)n3-c2ccc(Cl)cc2)CC1"
  Ki, nM: 5.9
- molecule: "Clc1ccc(-n2c(-c3ccc(Cl)cc3Cl)nc3c(NC4CCCCC4)ncnc32)cc1"
  Ki, nM: 12
- molecule: "Clc1ccc(-n2c(-c3ccccc3Cl)nc3c(N4CCCCC4)ncnc32)cc1"
  Ki, nM: 2.1
